# System: MV4-11
# protocol text: CellTox Green cytotoxicity fluorescence relative to DMSO vehicle (fold of vehicle RFU); higher = more cell death (loss of membrane integrity), active = 2 or more
# setup conditions: 1 µM; 24 h
Everything with CellTox Green cytotoxicity fluorescence lower than 1 is No; everything else, including exactly 1, is Yes.

Exercise: Decide: CellTox Green cytotoxicity fluorescence of "CN1CCN(Cc2ccc(Nc3ncc(Cl)c(Nc4ccccc4S(=O)(=O)N(C)C)n3)cc2)CC1" >= 1?
Key: Yes

Exercise: Decide: CellTox Green cytotoxicity fluorescence of "CCS(=O)(=O)N1CCN(c2ccc(Nc3ncc(C(N)=O)c(NC4CC4)n3)cc2)CC1" >= 1?
Key: No

Exercise: Decide: CellTox Green cytotoxicity fluorescence of "CN(C)CC[C@H](CSc1ccccc1)Nc1ccc(S(=O)(=O)NC(=O)c2ccc(N3CCN(Cc4ccccc4-c4ccc(Cl)cc4)CC3)cc2)cc1[N+](=O)[O-]" >= 1?
Key: Yes

Exercise: Decide: CellTox Green cytotoxicity fluorescence of CCOC(=O)C1=C(N)Oc2ccc(Br)cc2C1C(C#N)C(=O)OCC (centres undefined) >= 1?
Key: No

Exercise: Decide: CellTox Green cytotoxicity fluorescence of "C=CCc1cccc(/C=N/NC(=O)CN2CCN(Cc3ccccc3)CC2)c1O" >= 1?
Key: No

====

# Tested on: CMK
# protocol text: CellTox Green cytotoxicity fluorescence relative to DMSO vehicle (fold of vehicle RFU); higher = more cell death (loss of membrane integrity), active = 2 or more
# setup conditions: 0.1 µM; 72 h
Task for the reader: assign each of the following compounds its reported CellTox Green cytotoxicity fluorescence.
In your answer, state the number alone without any accompanying words.

Exercise: Need CellTox Green cytotoxicity fluorescence of Nc1cccc2c1C(=O)N(C1CCC(=O)NC1=O)C2=O (stereo not drawn) [Pomalidomide] , thanks.
Key: 0.952

Exercise: Need CellTox Green cytotoxicity fluorescence of "Cc1nn(C)c(COc2ccc(N3CCN(S(=O)(=O)N(C)C)CC3)cc2)c1-c1cccc2c(CCCOc3cccc4ccccc34)c(C(=O)O)n(CCN3CCOCC3)c12" , thanks.
Key: 0.957

Exercise: Need CellTox Green cytotoxicity fluorescence of "CC(=O)O/N=C1/C(c2c(O)[nH]c3cc(Br)ccc23)=Nc2ccccc21" , thanks.
Key: 0.981

Exercise: Need CellTox Green cytotoxicity fluorescence of "CNC(=O)c1ccccc1Nc1cc(Nc2ccc(N3CCOCC3)cc2OC)ncc1C(F)(F)F" , thanks.
Key: 0.917

Exercise: Need CellTox Green cytotoxicity fluorescence of "CC(=O)N1c2ccc(-c3ccc(C(=O)O)cc3)cc2[C@H](Nc2ccc(Cl)cc2)C[C@@H]1C" , thanks.
Key: 1.37

Exercise: Need CellTox Green cytotoxicity fluorescence of "CC(=NNC(=S)N1CCC1)c1ccccn1" , thanks.
Key: 1.42

Exercise: Need CellTox Green cytotoxicity fluorescence of "C=CC(=O)N1CC(=Cc2ccc([N+](=O)[O-])cc2)C(=O)C(=Cc2ccc([N+](=O)[O-])cc2)C1" , thanks.
Key: 1.07

Exercise: Need CellTox Green cytotoxicity fluorescence of Nc1cccc2c1CN(C1CCC(=O)NC1=O)C2=O (stereo not drawn) [Lenalidomide] , thanks.
Key: 0.898

====

# Test system: Kasumi-1
# protocol text: CellTox Green cytotoxicity fluorescence relative to DMSO vehicle (fold of vehicle RFU); higher = more cell death (loss of membrane integrity), active = 2 or more
# setup conditions: 1 µM; 72 h
Task for the reader: assign each of the following compounds its reported CellTox Green cytotoxicity fluorescence.
In your answer, state the number alone without any accompanying words.

Exercise: Need CellTox Green cytotoxicity fluorescence of "CCS(=O)(=O)N1CCN(c2ccc(Nc3ncc(C(N)=O)c(NC4CC4)n3)cc2)CC1" , thanks.
Key: 1.15

Exercise: Need CellTox Green cytotoxicity fluorescence of "O=C1C(=O)N(Cc2ccc(Cl)c(Cl)c2)c2ccccc21" , thanks.
Key: 1.04

Exercise: Need CellTox Green cytotoxicity fluorescence of "CN[C@@H](C)C(=O)N[C@H](C(=O)N1CCC[C@H]1C(=O)Nc1snnc1-c1ccccc1)C1CCCCC1" , thanks.
Key: 1.1

Exercise: Need CellTox Green cytotoxicity fluorescence of "CNC(=O)c1ccccc1Nc1cc(Nc2ccc(N3CCOCC3)cc2OC)ncc1C(F)(F)F" , thanks.
Key: 1.08
